Below: a set of entries, each annotated with reported logD at 0.5 h.
# Assay Protocol: Distribution coefficient, logD of compound in n-Octanol/PBS at pH 7.4 incubated for 30 mins under shaking condition by UHPLC-MS analysis
# Format: physicochemical
Could you keep your reply to the number by itself?

Examples with their reported logD at 0.5 h follow.
[
  {
    "Compound": "COc1ccc2c(c1)c(CC(=O)N1CCN(CCOCCOCC(=O)N[C@H](C(=O)N3C[C@H](O)C[C@H]3C(=O)N[C@@H](C)c3ccc(-c4scnc4C)cc3)C(C)(C)C)CC1)c(C)n2C(=O)c1ccc(Cl)cc1",
    "logD at 0.5 h": 4.33
  },
  {
    "Compound": "CCOC(=O)c1c(C)n(Cc2ccccc2)c2ccc(OCCCCCCCCC(=O)N[C@H](C(=O)N3C[C@H](O)C[C@H]3C(=O)N[C@@H](C)c3ccc(-c4scnc4C)cc3)C(C)(C)C)cc12",
    "logD at 0.5 h": 5.21
  }
]

// next item, logD at 0.5 h requested
Input: logD at 0.5 h for O=C1CCC(N2C(=O)c3cccc(NCCOCCOCCOCCn4cc(COc5ccc(N(C(=O)CCl)C(C(=O)NCCc6ccccc6)c6cccs6)cc5Cl)nn4)c3C2=O)C(=O)N1 (stereo not drawn) ?
Output: 4.27
